Test system: P388 leukemia ip, CD2F1 mice, survival T/C
Protocol text: NCI In Vivo Anticancer Drug Screen. Data for tumor model P388 Leukemia (intraperitoneal) in CD2F1 (CDF1) mice
Measurement setup: endpoint: median survival time; dose: 12.5 mg/kg/injection; schedule: Q01DX005 (ip); vehicle: Klucel (hydroxypropylcellulose) (HPC)
Toxic doses and inconclusive results are not listed. The calls were made as follows: active = survival T/C of 150% or more; inactive = T/C below 125% in these data.
Outcome codes: 1.0 = active, 0.0 = inactive

{"Compound": "O=C1CSC(c2ccccc2F)N1c1ncccn1 (stereo not drawn)", "Group label": 0.0}
{"Compound": "CN=C(NCCc1ccccc1)c1ccc(NC(=O)c2ccc(C(=O)Nc3ccc(C(=NC)NCCc4ccccc4)cc3)cc2)cc1", "Group label": 1.0}
{"Compound": "COC1CC2C=CC3C4OC2(/C(C)=C/C(C)C(C(C)O)OC1=O)C3C(O)C(C)C4OC(=O)c1ccc[nH]1 (stereo not drawn)", "Group label": 0.0}
{"Compound": "COc1ccc(CC2c3cc(OC)c(OC)cc3C=CN2C)cc1OC (stereo not drawn)", "Group label": 0.0}
{"Compound": "C[CH2][Sn]([O][Sn]([Cl])([CH2]C)[c]1ccccc1)[c]1ccccc1 (stereo not drawn)", "Group label": 0.0}
{"Compound": "O=C(Nc1ccc(N=C(NC2CCCCC2)c2ccccc2)cc1)c1ccc(C(=O)Nc2ccc(N=C(NC3CCCCC3)c3ccccc3)cc2)cc1", "Group label": 0.0}
{"Compound": "c1ccc2c(c1)[nH]c1c2c(N2CCOCC2)nn2cnnc12", "Group label": 0.0}
{"Compound": "CC1=CC(C/C(C)=C/COc2ccc3ccc(=O)oc3c2)OC1=O (stereo not drawn)", "Group label": 0.0}

====

Tested on: P388 leukemia ip, CD2F1 mice, survival T/C
Protocol text: NCI In Vivo Anticancer Drug Screen. Data for tumor model P388 Leukemia (intraperitoneal) in CD2F1 (CDF1) mice
Measurement setup: endpoint: median survival time; dose: 100.0 mg/kg/injection; schedule: Q04DX003 (ip); vehicle: saline with Tween-80
Experimental: The antitumor activity of compounds was measured in mice bearing transplantable tumors. Survival or tumor size were measured and the results are expressed as the measurement made in the treated group (T) divided by the measurement made in the vehicle treated control group (C). The tumor model used in this assay is P388 Leukemia (intraperitoneal) in CD2F1 (CDF1) mice
Toxic doses and inconclusive results are not listed. How the source made its calls: active means survival T/C of 150% or more; inactive means T/C below 125% in these data.
Outcome codes: true (1) for active, false (0) for inactive

{"Structure string": "Nc1cc2ccc3ncccc3c2c2cccnc12", "Group label": "false (0)"}
{"Structure string": "CCCCCCCCCCCCCCCCCCCC[N+]1(CC)CCOCC1", "Group label": "false (0)"}
{"Structure string": "CCCCOC(=O)c1ccccn1", "Group label": "false (0)"}
{"Structure string": "Nc1ccc2oc3ccccc3c2c1", "Group label": "false (0)"}
{"Structure string": "CCOc1ccc(CO)cc1", "Group label": "false (0)"}
{"Structure string": "Nc1cc(N)c([N+](=O)[O-])cc1[N+](=O)[O-]", "Group label": "false (0)"}
{"Structure string": "O=C(NO)c1ccccc1", "Group label": "false (0)"}
{"Structure string": "O=NN(CCCl)C(=O)Nc1ccc(Br)cn1", "Group label": "false (0)"}
{"Structure string": "Cc1nc2c([N+](=O)[O-])c(Nc3ccc(O)cc3)c([N+](=O)[O-])cc2[nH]1", "Group label": "false (0)"}
{"Structure string": "CN(C)CCNc1ccc(O)c2sc3ccccc3c(=O)c12", "Group label": "false (0)"}
{"Structure string": "c1ccc(N2CCSCC2)cc1", "Group label": "true (1)"}
{"Structure string": "Cc1ccc(NC(=O)C(c2ccccc2)c2ccccc2)cc1", "Group label": "false (0)"}
{"Structure string": "Cc1ccc(C(=O)c2ccccc2C(=O)O)cc1N", "Group label": "false (0)"}
